- measurement-target: IRAK4 (Homo sapiens, UniProt Q9NWZ3)
- Construct: endogenous in cells; host or cells: THP-1 cells
- Sequence (Q9NWZ3 whole entry): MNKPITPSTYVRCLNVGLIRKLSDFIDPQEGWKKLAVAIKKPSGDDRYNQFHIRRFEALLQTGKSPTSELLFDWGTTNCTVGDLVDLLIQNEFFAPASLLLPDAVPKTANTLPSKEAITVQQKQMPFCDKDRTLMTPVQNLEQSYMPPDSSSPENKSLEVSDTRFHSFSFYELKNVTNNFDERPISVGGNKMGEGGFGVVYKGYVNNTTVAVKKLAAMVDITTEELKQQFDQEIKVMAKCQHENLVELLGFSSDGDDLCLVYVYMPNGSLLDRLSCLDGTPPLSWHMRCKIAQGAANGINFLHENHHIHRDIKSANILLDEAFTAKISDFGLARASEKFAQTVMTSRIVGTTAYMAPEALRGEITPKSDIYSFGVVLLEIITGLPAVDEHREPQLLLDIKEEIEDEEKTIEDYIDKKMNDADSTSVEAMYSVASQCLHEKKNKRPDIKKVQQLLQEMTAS
- assay-explanation: LVL THP1 HTRF (THP1 Homogeneous Time Resolved Fluorescence)
- Assay type: cell-based
- experimental-setup: THP1 cells, 18 h incubation with compound
measurement-type: LVL THP1 HTRF YMIN (%)

(I) C[C@H](C#N)Nc1cc(-n2ncc3cc(C#N)cnc32)ncc1-n1cc([C@H]2CC[C@H](CCN3CCC(c4ccc([C@@]5(C)CCC(=O)NC5=O)cc4)C(F)C3)CC2)nn1 (some centres unmarked) [P-311]
(II) C[C@H](C#N)Nc1cc(-n2ncc3cc(C#N)cnc32)ncc1-n1cc([C@H]2CC[C@H](CCN3CC4(CC(c5ccc(N6CCC(=O)NC6=O)cn5)C4)C3)CC2)nn1
(III) C[C@H](C#N)Nc1cc(-n2ncc3cc(C#N)cnc32)ncc1-n1cc(C2CCC(CCN3CCN(c4ccc(C5CCC(=O)NC5=O)cc4)C4COCC43)CC2)nn1 (single isomer, unassigned) [P-237]
(IV) C[C@H](C#N)Nc1cc(-n2ncc3cc(C#N)c(N)nc32)ncc1-n1cc([C@H]2CC[C@H](CCN3CCN(c4cnc([C@@]5(C)CCC(=O)NC5=O)cn4)CC3)CC2)nn1 (single isomer, unassigned) [P-267]
(V) C[C@H](C#N)Nc1cc(Nc2ncncc2F)ncc1-n1cc([C@H]2CC[C@H](CCN3CCN(c4ccc(C5CCC(=O)NC5=O)cc4)CC3)CC2)nn1 (some centres unmarked)
# desc sort on LVL THP1 HTRF YMIN across 5 molecules Give your ranking as a list of the labels in the requested order.
IV, II, V, III, I
(IV: 54.7%, II: 23.7%, V: 5.6%, III: 2.8%, I: −1.0%)

---

- measurement-target: IRAK4 (Homo sapiens)
- Construct: endogenous in cells; host or cells: THP-1 cells
- assay-explanation: LVL THP1 HTRF (THP1 Homogeneous Time Resolved Fluorescence)
- Type: cell-based
- experimental-setup: THP1 cells, 18 h incubation with compound
- Experimental: Cell culture media was prepared in a tissue culture hood in a sterile environment by adding 10% FBS and 1% Penicillin Streptomycin to 500 mL no phenol red RPMI 1640 media. The media was filtered through a Nalgene Bottle Top Filter and stored at 4° C. For Homogenous Time Resolved Fluorescence (HTRF) assays, a Cisbio HTRF kit was used, which included: Lysis Buffer #1 4×, Blocking Reagent #3 100×, 20× Antibody 1 (Anti-IRAK4 d2), 20× Antibody 2 (Anti-IRAK4 k), and Detection Buffer. […]
measurement-type: LVL THP1 HTRF YMIN (%)

C[C@H](C#N)Nc1cc(-n2ncc3cc(C#N)cnc32)ncc1-n1cc([C@H]2CC[C@H](CCN3CCC4(C3)CN(c3ccc([C@@]5(C)CCC(=O)NC5=O)cc3)C4)CC2)nn1 [P-448] :: 3.9
C[C@H](C#N)Nc1cc(-n2ncc3cc(C#N)cnc32)ncc1-c1cnn(C2CCC(CCN3CCN(c4ccc(C5CCC(=O)NC5=O)cc4)CC3)CC2)c1 (stereo partly drawn) [P-203] :: 3.0
C[C@H](C#N)Nc1cc(-n2ncc3cc(C#N)cnc32)ncc1C(=O)N[C@H]1CC[C@H](CCN2C[C@H]3C[C@@H](C2)N3c2ccc(C3CCC(=O)NC3=O)cc2)CC1 (stereo partly drawn) [P-180] :: 18.9
